This collection of values is drawn from ChEMBL document CHEMBL1148695.

target: Nociceptin receptor (Mus musculus); experiment: Agonist activity at NOP receptor in Swiss mouse vas deferens assessed as effect on electrically stimulated contractions; assay type: functional, tissue-based
reported endpoint: pEC50
Quick note: pEC50 values are minus log10 of concentrations in mol/L.

Which pEC50 is reported for this molecule? CC[C@](C)(NC(=O)CNC(=O)[C@@H](NC(=O)[C@H](Cc1ccccc1)NC(=O)CNC(=O)CNC(=O)[C@@H](N)Cc1ccccc1)[C@@H](C)O)C(=O)N[C@@H](CCCNC(=N)N)C(=O)N[C@@H](CCCCN)C(=O)N[C@@H](CO)C(=O)N[C@@H](C)C(=O)N[C@@H](CCCNC(=N)N)C(=O)N[C@@H](CCCCN)C(=O)N[C@@H](CC(C)C)C(=O)N[C@@H](C)C(=O)N[C@@H](CC(N)=O)C(=O)N[C@@H](CCC(N)=O)C(N)=O
7.83

----------
target: Nociceptin receptor (Mus musculus, UniProt P35377); experiment: Agonist activity at NOP receptor in Swiss mouse vas deferens assessed as effect on electrically stimulated contractions; assay type: functional, tissue-based
Sequence (P35377 whole entry): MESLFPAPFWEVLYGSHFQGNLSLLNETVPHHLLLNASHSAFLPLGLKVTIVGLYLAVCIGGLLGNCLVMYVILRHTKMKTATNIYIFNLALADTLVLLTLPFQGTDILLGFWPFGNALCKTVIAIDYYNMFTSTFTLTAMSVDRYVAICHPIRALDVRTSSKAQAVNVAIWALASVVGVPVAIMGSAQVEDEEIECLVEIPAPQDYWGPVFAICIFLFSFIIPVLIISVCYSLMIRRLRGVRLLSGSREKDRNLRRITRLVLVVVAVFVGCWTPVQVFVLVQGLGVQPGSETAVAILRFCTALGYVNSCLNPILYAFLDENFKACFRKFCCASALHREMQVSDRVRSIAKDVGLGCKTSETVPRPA
Hi there, I'd appreciate the recorded pEC50 for every entry that follows.
Recall that pEC50 is obtained by taking minus log10 of the concentration measured in molar.

What pEC50 value was documented for this compound, CC(C)C[C@H](NC(=O)[C@H](CCCCN)NC(=O)[C@H](CCCNC(=N)N)NC(=O)C1(NC(=O)[C@H](CO)NC(=O)[C@H](CCCCN)NC(=O)[C@H](CCCNC(=N)N)NC(=O)[C@H](C)NC(=O)CNC(=O)[C@@H](NC(=O)[C@H](Cc2ccccc2)NC(=O)CNC(=O)CNC(=O)[C@@H](N)Cc2ccccc2)[C@@H](C)O)CCCC1)C(=O)N[C@@H](C)C(=O)N[C@@H](CC(N)=O)C(=O)N[C@@H](CCC(N)=O)C(N)=O ?
8.08

Tell me the measured pEC50 of CC(C)C[C@H](NC(=O)[C@H](CCCCN)NC(=O)[C@H](CCCNC(=N)N)NC(=O)[C@H](C)NC(=O)[C@H](CO)NC(=O)[C@H](CCCCN)NC(=O)[C@H](CCCNC(=N)N)NC(=O)C(C)(NC(=O)CNC(=O)[C@@H](NC(=O)[C@H](Cc1ccccc1)NC(=O)CNC(=O)CNC(=O)[C@@H](N)Cc1ccccc1)[C@@H](C)O)C(C)C)C(=O)N[C@@H](C)C(=O)N[C@@H](CC(N)=O)C(=O)N[C@@H](CCC(N)=O)C(N)=O (stereo partly drawn) , please.
7.56

Returns the measured pEC50 for the input compound. Input: CC(C)C[C@H](NC(=O)[C@H](CCCCN)NC(=O)[C@H](CCCNC(=N)N)NC(=O)C(C)(CC(C)C)NC(=O)[C@H](CO)NC(=O)[C@H](CCCCN)NC(=O)[C@H](CCCNC(=N)N)NC(=O)[C@H](C)NC(=O)CNC(=O)[C@@H](NC(=O)[C@H](Cc1ccccc1)NC(=O)CNC(=O)CNC(=O)[C@@H](N)Cc1ccccc1)[C@@H](C)O)C(=O)N[C@@H](C)C(=O)N[C@@H](CC(N)=O)C(=O)N[C@@H](CCC(N)=O)C(N)=O (stereo partly drawn)
7.87

----------
biological target: Nociceptin receptor (Mus musculus, UniProt P35377); assay: Agonist activity at NOP receptor in Swiss mouse vas deferens assessed as effect on electrically stimulated contractions; format: functional, tissue-based
reported endpoint: pEC50
In textbook form, pEC50 equals minus log to base ten of the concentration in mol/L.

What value of pEC50 has been reported for the following molecule? CCC(CC)(NC(=O)CNC(=O)[C@@H](NC(=O)[C@H](Cc1ccccc1)NC(=O)CNC(=O)CNC(=O)[C@@H](N)Cc1ccccc1)[C@@H](C)O)C(=O)N[C@@H](CCCNC(=N)N)C(=O)N[C@@H](CCCCN)C(=O)N[C@@H](CO)C(=O)N[C@@H](C)C(=O)N[C@@H](CCCNC(=N)N)C(=O)N[C@@H](CCCCN)C(=O)N[C@@H](CC(C)C)C(=O)N[C@@H](C)C(=O)N[C@@H](CC(N)=O)C(=O)N[C@@H](CCC(N)=O)C(N)=O
7.91

Given CC(C)C[C@H](NC(=O)[C@H](CCCCN)NC(=O)[C@H](CCCNC(=N)N)NC(=O)[C@H](C)NC(=O)[C@H](CO)NC(=O)[C@H](CCCCN)NC(=O)[C@H](CCCNC(=N)N)NC(=O)C1(NC(=O)CNC(=O)[C@@H](NC(=O)[C@H](Cc2ccccc2)NC(=O)CNC(=O)CNC(=O)[C@@H](N)Cc2ccccc2)[C@@H](C)O)CCCCC1)C(=O)N[C@@H](C)C(=O)N[C@@H](CC(N)=O)C(=O)N[C@@H](CCC(N)=O)C(N)=O , state its recorded pEC50.
7.20

# query: pEC50 of entry CC(C)C[C@H](NC(=O)[C@H](CCCCN)NC(=O)[C@H](CCCNC(=N)N)NC(=O)C1(NC(=O)[C@H](CO)NC(=O)[C@H](CCCCN)NC(=O)[C@H](CCCNC(=N)N)NC(=O)[C@H](C)NC(=O)CNC(=O)[C@@H](NC(=O)[C@H](Cc2ccccc2)NC(=O)CNC(=O)CNC(=O)[C@@H](N)Cc2ccccc2)[C@@H](C)O)CCCCC1)C(=O)N[C@@H](C)C(=O)N[C@@H](CC(N)=O)C(=O)N[C@@H](CCC(N)=O)C(N)=O
7.79

Query: pEC50; subject: CC[C@](C)(NC(=O)CNC(=O)[C@@H](NC(=O)[C@H](Cc1ccccc1)NC(=O)CNC(=O)CNC(=O)[C@@H](N)Cc1ccccc1)[C@@H](C)O)C(=O)N[C@@H](CCCNC(=N)N)C(=O)N[C@@H](CCCCN)C(=O)N[C@@H](CO)C(=O)N[C@@H](C)C(=O)N[C@@H](CCCNC(=N)N)C(=O)N[C@@H](CCCCN)C(=O)N[C@@H](CC(C)C)C(=O)N[C@@H](C)C(=O)N[C@@H](CC(N)=O)C(=O)N[C@@H](CCC(N)=O)C(N)=O
7.62

# get_value(readout='pEC50', item= CC(C)C[C@H](NC(=O)[C@H](CCCCN)NC(=O)[C@H](CCCNC(=N)N)NC(=O)C(C)(C)NC(=O)[C@H](CO)NC(=O)[C@H](CCCCN)NC(=O)[C@H](CCCNC(=N)N)NC(=O)[C@H](C)NC(=O)CNC(=O)[C@@H](NC(=O)[C@H](Cc1ccccc1)NC(=O)CNC(=O)CNC(=O)[C@@H](N)Cc1ccccc1)[C@@H](C)O)C(=O)N[C@@H](C)C(=O)N[C@@H](CC(N)=O)C(=O)N[C@@H](CCC(N)=O)C(N)=O )
8.05

GET /values?readout=pEC50&item= CCCC(CCC)(NC(=O)[C@H](CO)NC(=O)[C@H](CCCCN)NC(=O)[C@H](CCCNC(=N)N)NC(=O)[C@H](C)NC(=O)CNC(=O)[C@@H](NC(=O)[C@H](Cc1ccccc1)NC(=O)CNC(=O)CNC(=O)[C@@H](N)Cc1ccccc1)[C@@H](C)O)C(=O)N[C@@H](CCCNC(=N)N)C(=O)N[C@@H](CCCCN)C(=O)N[C@@H](CC(C)C)C(=O)N[C@@H](C)C(=O)N[C@@H](CC(N)=O)C(=O)N[C@@H](CCC(N)=O)C(N)=O
7.53

Look at this molecule and give its reported pEC50. CC(C)C[C@H](NC(=O)[C@H](CCCCN)NC(=O)[C@H](CCCNC(=N)N)NC(=O)[C@H](C)NC(=O)[C@H](CO)NC(=O)[C@H](CCCCN)NC(=O)[C@H](CCCNC(=N)N)NC(=O)C(C)(NC(=O)CNC(=O)[C@@H](NC(=O)[C@H](Cc1ccccc1)NC(=O)CNC(=O)CNC(=O)[C@@H](N)Cc1ccccc1)[C@@H](C)O)C(C)C)C(=O)N[C@@H](C)C(=O)N[C@@H](CC(N)=O)C(=O)N[C@@H](CCC(N)=O)C(N)=O (some centres undefined)
7.26

----------
Record form. Attribute: pEC50. Fill in for each entry.
target: Nociceptin receptor (Mus musculus); assay: Agonist activity at NOP receptor in Swiss mouse vas deferens assessed as effect on electrically stimulated contractions; type: functional, tissue-based
Formally, pEC50 is defined as -log10 of the concentration c, with c in mol/L.

Fill blank: measured pEC50 of the molecule CCC(CC)(NC(=O)[C@H](CO)NC(=O)[C@H](CCCCN)NC(=O)[C@H](CCCNC(=N)N)NC(=O)[C@H](C)NC(=O)CNC(=O)[C@@H](NC(=O)[C@H](Cc1ccccc1)NC(=O)CNC(=O)CNC(=O)[C@@H](N)Cc1ccccc1)[C@@H](C)O)C(=O)N[C@@H](CCCNC(=N)N)C(=O)N[C@@H](CCCCN)C(=O)N[C@@H](CC(C)C)C(=O)N[C@@H](C)C(=O)N[C@@H](CC(N)=O)C(=O)N[C@@H](CCC(N)=O)C(N)=O is ____.
7.75

For CCCC(CCC)(NC(=O)CNC(=O)[C@@H](NC(=O)[C@H](Cc1ccccc1)NC(=O)CNC(=O)CNC(=O)[C@@H](N)Cc1ccccc1)[C@@H](C)O)C(=O)N[C@@H](CCCNC(=N)N)C(=O)N[C@@H](CCCCN)C(=O)N[C@@H](CO)C(=O)N[C@@H](C)C(=O)N[C@@H](CCCNC(=N)N)C(=O)N[C@@H](CCCCN)C(=O)N[C@@H](CC(C)C)C(=O)N[C@@H](C)C(=O)N[C@@H](CC(N)=O)C(=O)N[C@@H](CCC(N)=O)C(N)=O , what is its reported pEC50?
7.90

// pEC50 lookup, key: CC(C)C[C@H](NC(=O)[C@H](CCCCN)NC(=O)[C@H](CCCNC(=N)N)NC(=O)[C@H](C)NC(=O)[C@H](CO)NC(=O)[C@H](CCCCN)NC(=O)[C@H](CCCNC(=N)N)NC(=O)C1(NC(=O)CNC(=O)[C@@H](NC(=O)[C@H](Cc2ccccc2)NC(=O)CNC(=O)CNC(=O)[C@@H](N)Cc2ccccc2)[C@@H](C)O)CC1)C(=O)N[C@@H](C)C(=O)N[C@@H](CC(N)=O)C(=O)N[C@@H](CCC(N)=O)C(N)=O
7.08
